biological target: SETD8 (Homo sapiens, UniProt Q9NQR1)
Sequence (Q9NQR1 232-393): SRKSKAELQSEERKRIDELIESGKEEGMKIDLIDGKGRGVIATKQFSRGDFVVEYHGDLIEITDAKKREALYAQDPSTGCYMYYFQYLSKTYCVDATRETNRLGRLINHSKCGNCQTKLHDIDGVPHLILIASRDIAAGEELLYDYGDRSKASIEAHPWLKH
property: IC50 (µM)

O=C1C(SCCO)=C(SCCO)C(=O)c2ccccc21 [NSC95397] | 82
